Biological target: ZBP1 (His-ZBP1) (Rattus norvegicus (rat), UniProt Q8CGX0 1-577)
Sequence (Q8CGX0 whole entry): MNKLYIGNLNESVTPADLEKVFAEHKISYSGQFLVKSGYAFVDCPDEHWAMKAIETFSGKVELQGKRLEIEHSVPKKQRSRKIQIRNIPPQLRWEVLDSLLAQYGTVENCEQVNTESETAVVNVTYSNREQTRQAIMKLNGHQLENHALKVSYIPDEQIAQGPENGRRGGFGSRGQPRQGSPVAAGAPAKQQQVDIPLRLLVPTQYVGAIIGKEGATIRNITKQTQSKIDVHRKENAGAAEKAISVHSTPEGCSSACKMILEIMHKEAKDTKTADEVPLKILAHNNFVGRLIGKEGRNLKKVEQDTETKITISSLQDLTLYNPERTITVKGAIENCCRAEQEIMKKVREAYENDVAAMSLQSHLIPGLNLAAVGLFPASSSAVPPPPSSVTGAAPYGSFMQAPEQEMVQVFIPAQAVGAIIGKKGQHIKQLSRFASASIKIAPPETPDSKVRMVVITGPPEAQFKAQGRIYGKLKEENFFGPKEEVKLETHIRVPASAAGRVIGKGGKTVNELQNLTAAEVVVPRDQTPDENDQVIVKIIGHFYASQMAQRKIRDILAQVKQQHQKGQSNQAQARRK
Assay: EMSA; apparent Kd; REMSA: 50 mM Tris-HCl pH 7.0, 150 mM NaCl, 5 mM MgCl2, 0.2 mM DTT, 0.25 mg/ml tRNA, 0.25 mg/ml BSA, room temperature 20 min; 20 fmol RNA and 3 pmol protein in 20 ul
Conditions: protein: recombinant; tags: 6xHis (replaces GST in pGEX); label: biotin at both ends
readoutType: Kd

[[record]]
binder = "chicken zipcode (structured_RNA) RNA: ACCGGACUGUUACCAACACCCACACCCCUGUGAUGAAACAAAACCCAUAAAUGC"
result = "78.8 nM"

